- System: Bowes
- procedure-summary: drug sensitivity score (DSS) (DSS (unitless, 0-50 scale)); higher = more sensitive (stronger viability inhibition); extreme values may be limits of the assay
- conditions: 72 h; culture: 2D
outcome-measure: drug sensitivity score
Please reply with the number alone, leaving off any unit.

molecule	reading
C[C@H]1CN(C2COC2)CCN1c1ccc(Nc2cc(-c3ccnc(N4CCn5c(cc6c5CC(C)(C)C6)C4=O)c3CO)cn(C)c2=O)nc1 [GDC-0853]	0

# input molecule: C=CC(=O)N1CCC[C@@H](n2nc(-c3ccc(Oc4ccccc4)cc3)c3c(N)ncnc32)C1 [Ibrutinib] ; wanted: its drug sensitivity score 2.8

Fill in the blank: the reported drug sensitivity score of CC(C)[C@H]1C(=O)N[C@@H](CCCNC(=N)N)C(=O)NCC(=O)N[C@@H](CC(=O)O)C(=O)N[C@H](Cc2ccccc2)C(=O)N1C [Cilengitide] is ____. 0

What measured drug sensitivity score goes with O=C(O)c1ccc(CN2CCC(CN[C@@H]3C[C@H]3c3ccccc3)CC2)cc1 ? 0

----------
- Tested on: FM-MEL-6
- procedure-summary: drug sensitivity score (DSS) (DSS (unitless, 0-50 scale)); higher = more sensitive (stronger viability inhibition); extreme values may be limits of the assay
- conditions: 72 h; culture: 2D
Below, each entry is listed alongside its reported drug sensitivity score.
Give the figure by itself; no unit, no explanation.

Field: example entries. Status: answers known.
compound	study-system	drug sensitivity score
CCS(=O)(=O)N1CC(CC#N)(n2cc(-c3ncnc4[nH]ccc34)cn2)C1	FM-MEL-6	0
c1cn2cc(-c3ccc4cn[nH]c4c3)nc(Nc3ccc(N4CCOCC4)cc3)c2n1	FM-MEL-6	0
N#Cc1ccnc(N2C(=O)CC[C@H]2C(=O)N(c2cncc(F)c2)[C@H](C(=O)NC2CC(F)(F)C2)c2ccccc2Cl)c1	FM-MEL-6	0.3
COc1cc(N2CCC(N3CCN(C)CC3)CC2)ccc1Nc1ncc(Cl)c(Nc2ccccc2P(C)(C)=O)n1	FM-MEL-6	1.6
O=C(O)CC[C@H]1CC[C@@](c2cc(F)ccc2F)(S(=O)(=O)c2ccc(Cl)cc2)CC1	FM-MEL-6	0
O=C(O)CC1CC(c2ccccc2)=NO1 (stereo not drawn)	FM-MEL-6	0
CO[C@H]1C[C@@H]2CC[C@@H](C)[C@@](O)(O2)C(=O)C(=O)N2CCCC[C@H]2C(=O)O[C@H]([C@H](C)C[C@@H]2CC[C@@H](OC(=O)C(C)(CO)CO)[C@H](OC)C2)CC(=O)[C@H](C)/C=C(\C)[C@@H](O)[C@@H](OC)C(=O)[C@H](C)C[C@H](C)/C=C/C=C/C=C/1C	FM-MEL-6	4.4
O=C(O)c1ccc2c(c1)nc(Nc1cccc(Cl)c1)c1ccncc12	FM-MEL-6	3.4
CC(=O)O[C@@]12CO[C@@H]1C[C@H](O)[C@@]1(C)C(=O)[C@H](O)C3=C(C)[C@@H](OC(=O)[C@H](O)[C@@H](NC(=O)OC(C)(C)C)c4ccccc4)C[C@@](O)([C@@H](OC(=O)c4ccccc4)[C@H]21)C3(C)C	FM-MEL-6	14.7
CC[C@@H]1[C@H](F)C(=O)N[C@@H]1COc1nccc2cc(C(N)=O)c(OC)cc12	FM-MEL-6	0

Suppose we examine the compound COc1ccc(-c2ccc3ncc4c(c3c2)n(-c2ccc(N3CCNCC3)c(C(F)(F)F)c2)c(=O)n4C)cn1 ; what drug sensitivity score value has been reported? 12

Fill blank: measured drug sensitivity score of the compound COc1cccc2c1C(=O)c1c(O)c3c(c(O)c1C2=O)C[C@@](O)(C(C)=O)C[C@@H]3O[C@H]1C[C@H](N)[C@H](O)[C@H](C)O1 is ____. 7.4

drug sensitivity score lookup needed for CCN1CCN(Cc2ccc(Nc3ncc(F)c(-c4cc(F)c5nc(C)n(C(C)C)c5c4)n3)nc2)CC1 , thanks. 0
